Data origin: ChEMBL document CHEMBL4020785

- experimental-target: Peroxisome proliferator-activated receptor alpha (Homo sapiens, UniProt Q07869)
- Sequence (Q07869 whole entry, the tested form may be a part): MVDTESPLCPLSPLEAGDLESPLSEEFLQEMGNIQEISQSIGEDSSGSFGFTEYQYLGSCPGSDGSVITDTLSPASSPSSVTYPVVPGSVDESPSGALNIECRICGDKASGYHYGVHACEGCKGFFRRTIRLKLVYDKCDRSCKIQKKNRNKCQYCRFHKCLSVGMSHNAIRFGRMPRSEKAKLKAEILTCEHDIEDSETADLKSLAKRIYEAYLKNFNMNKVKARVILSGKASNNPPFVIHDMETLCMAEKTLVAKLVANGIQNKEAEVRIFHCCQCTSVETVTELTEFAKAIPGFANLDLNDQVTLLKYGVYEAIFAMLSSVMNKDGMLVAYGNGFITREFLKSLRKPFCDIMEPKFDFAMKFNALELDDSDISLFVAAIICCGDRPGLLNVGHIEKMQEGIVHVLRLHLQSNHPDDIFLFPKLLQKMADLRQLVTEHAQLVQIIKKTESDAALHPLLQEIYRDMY
pEC50: −log10 of the molar value.
measured-property: pEC50

{"molecule": "CCO[C@@H](Cc1ccc(OCCN2c3ccccc3Oc3ccccc32)cc1)C(=O)O", "experimental-value": 5.55}

====

Items are presented alongside their recorded pEC50.
- experimental-target: Peroxisome proliferator-activated receptor alpha (Homo sapiens, UniProt Q07869)
- method: Agonist activity at GAL4N fused human PPARalpha LBD expressed in HEK293 cells co-expressing TK-MH100x4-Luc after 24 hrs by luciferase reporter gene assay
- Type: cell-based
pEC50: −log10 of the molar value.

{"molecule": "CC(=O)N[C@@H](C)c1nc(-c2ccc(OCCc3ccc(OS(C)(=O)=O)cc3)cc2)no1", "pEC50": 6.35}
{"molecule": "CC(=O)NC(C)c1nc(-c2ccc(OCC=C(c3ccc(Br)cc3)c3ccc(Br)cc3)cc2)no1 (configuration not stated)", "pEC50": 6.06}
{"molecule": "CC(=O)NC(C)c1nc(-c2ccc(OCCc3ccc(OS(C)(=O)=O)cc3)cc2)no1 (configuration not stated)", "pEC50": 5.92}
{"molecule": "CCOC(Cc1ccc(Oc2ccc(OCc3ccccc3)cc2)cc1)C(=O)O (configuration not stated)", "pEC50": 5.27}
{"molecule": "CC(=O)NC(C)c1nc(-c2ccc(OCCCOc3ccc(Oc4ccccc4)cc3)cc2)no1 (configuration not stated)", "pEC50": 6.62}
{"molecule": "CCO[C@@H](Cc1ccc(OCCc2ccc(OS(C)(=O)=O)cc2)cc1)C(=O)O [TESAGLITAZAR]", "pEC50": 5.42}
{"molecule": "CC(=O)NC(C)c1nc(-c2ccc(OCCN3c4ccccc4Oc4ccccc43)cc2)no1 (configuration not stated)", "pEC50": 6.33}
